System: NCI-H1651
TEST_NAME: relative viability (nuclei count vs DMSO), 5 days (fraction); higher = more cells survive
MEASUREMENT_CONTEXT: first compound 0.6325 µM
MEASUREMENT_TYPE: relative viability
No unit in the answer, only the number.

Example cases with answers are listed next.
MOLECULE: CN1CCN(CCOc2cc(OC3CCOCC3)c3c(Nc4c(Cl)ccc5c4OCO5)ncnc3c2)CC1 [Saracatinib] + CC(C)C[C@H](NC(=O)[C@H](Cc1ccccc1)NC(=O)c1cnccn1)B(O)O [Bortezomib] (partner 0.002 µM)
ASSAY_SYSTEM: NCI-H1651
relative viability: 1

MOLECULE: Cc1csc(=NC2CCCCC2)n1/N=C/c1ccc(O)c(O)c1O [MIM1] + CCNC(=O)c1noc(-c2cc(C(C)C)c(O)cc2O)c1-c1ccc(CN2CCOCC2)cc1 [Luminespib] (partner 0.01 µM)
ASSAY_SYSTEM: NCI-H1651
relative viability: 0.785

MOLECULE: CN1CCN(CCOc2cc(OC3CCOCC3)c3c(Nc4c(Cl)ccc5c4OCO5)ncnc3c2)CC1 [Saracatinib] + COc1cccc2cc(-c3nc([C@H]4CC[C@H](C(=O)O)CC4)n4ncnc(N)c34)[nH]c12 [OSI-027] (partner 0.5 µM)
ASSAY_SYSTEM: NCI-H1651
relative viability: 0.81

Q: Please give the measured relative viability for this molecule: Cc1csc(=NC2CCCCC2)n1/N=C/c1ccc(O)c(O)c1O [MIM1] + Cc1nc(NC(=O)N2CCC[C@H]2C(N)=O)sc1-c1ccnc(C(C)(C)C(F)(F)F)c1 [Alpelisib] (partner 2 µM)
A: 0.974

Q: Also need Cc1csc(=NC2CCCCC2)n1/N=C/c1ccc(O)c(O)c1O [MIM1] + O=C(CCCCCCC(=O)Nc1ccccc1)NO [Vorinostat] (partner 1 µM) , thanks.
A: 0.408

Q: Now the same for Cc1csc(=NC2CCCCC2)n1/N=C/c1ccc(O)c(O)c1O [MIM1] + C[C@@H](Oc1cc(-c2cnn(C3CCNCC3)c2)cnc1N)c1c(Cl)ccc(F)c1Cl [Crizotinib] (partner 1 µM)
A: 0.878

Q: Input Cc1csc(=NC2CCCCC2)n1/N=C/c1ccc(O)c(O)c1O [MIM1] + O=C(c1cc(Cc2n[nH]c(=O)c3ccccc23)ccc1F)N1CCN(C(=O)C2CC2)CC1 [Olaparib] (partner 8 µM)
A: 0.174

Q: And for CN1CCN(CCOc2cc(OC3CCOCC3)c3c(Nc4c(Cl)ccc5c4OCO5)ncnc3c2)CC1 [Saracatinib] + O=C(CCCCCCC(=O)Nc1ccccc1)NO [Vorinostat] (partner 1 µM) ?
A: 0.598

---

This section presents molecules with their documented relative viability values.
System: PC-14
TEST_NAME: relative viability (nuclei count vs DMSO), 5 days (fraction); higher = more cells survive
MEASUREMENT_CONTEXT: first compound 0.06325 µM
API note: the answer field is a bare number with no unit suffix.

MOLECULE: CCNC(=O)c1noc(-c2cc(C(C)C)c(O)cc2O)c1-c1ccc(CN2CCOCC2)cc1 [Luminespib] + CC(=O)Nc1cccc(-n2c(=O)n(C3CC3)c(=O)c3c(Nc4ccc(I)cc4F)n(C)c(=O)c(C)c32)c1 [Trametinib] (partner 0.02 µM)
ASSAY_SYSTEM: PC-14
relative viability: 0.0663

Q: Short answer please: relative viability, PC-14, entry CCNC(=O)c1noc(-c2cc(C(C)C)c(O)cc2O)c1-c1ccc(CN2CCOCC2)cc1 [Luminespib] + N=C(N)NC(=N)NCCc1ccccc1 [Phenformin] (partner 250 µM)
A: 0.0634

---

System: SK-LU-1
TEST_NAME: relative viability (nuclei count vs DMSO), 5 days (fraction); higher = more cells survive
MEASUREMENT_CONTEXT: first compound 0.002 µM
MEASUREMENT_TYPE: relative viability

MOLECULE: CCNC(=O)c1noc(-c2cc(C(C)C)c(O)cc2O)c1-c1ccc(CN2CCOCC2)cc1 [Luminespib] + Nc1nc2[nH]cc(CCc3ccc(C(=O)N[C@@H](CCC(=O)O)C(=O)O)cc3)c2c(=O)[nH]1 [Pemetrexed] (partner 0.2 µM)
relative viability: 1.01

Q: # get_value(readout='relative viability', item= CCNC(=O)c1noc(-c2cc(C(C)C)c(O)cc2O)c1-c1ccc(CN2CCOCC2)cc1 [Luminespib] + Cc1nc(NC(=O)N2CCC[C@H]2C(N)=O)sc1-c1ccnc(C(C)(C)C(F)(F)F)c1 [Alpelisib] (partner 2 µM) )
A: 1.33

---

Tested on: EPLC-272H
TEST_NAME: relative viability (nuclei count vs DMSO), 5 days (fraction); higher = more cells survive
MEASUREMENT_CONTEXT: first compound 20 µM
MEASUREMENT_TYPE: relative viability
# print the numeric value only

Please review the entries below; each comes with its answer.
MOLECULE: Cc1csc(=NC2CCCCC2)n1/N=C/c1ccc(O)c(O)c1O [MIM1] + CC(=O)c1c(C)c2cnc(Nc3ccc(N4CCNCC4)cn3)nc2n(C2CCCC2)c1=O [Palbociclib] (partner 0.5 µM)
ASSAY_RESULT: 0.149
--
MOLECULE: Cc1csc(=NC2CCCCC2)n1/N=C/c1ccc(O)c(O)c1O [MIM1] + CS(=O)(=O)N1CCN(Cc2cc3nc(-c4cccc5[nH]ncc45)nc(N4CCOCC4)c3s2)CC1 [Pictilisib] (partner 1 µM)
ASSAY_RESULT: 0.235
--
MOLECULE: Cc1csc(=NC2CCCCC2)n1/N=C/c1ccc(O)c(O)c1O [MIM1] + N=C(N)NC(=N)NCCc1ccccc1 [Phenformin] (partner 250 µM)
ASSAY_RESULT: 0.104

Attention now shifts to the item below.
Q: Item Cc1csc(=NC2CCCCC2)n1/N=C/c1ccc(O)c(O)c1O [MIM1] + Cc1nc(Nc2ncc(C(=O)Nc3c(C)cccc3Cl)s2)cc(N2CCN(CCO)CC2)n1 [Dasatinib] (partner 0.075 µM) with EPLC-272H - relative viability?
A: 0.0989

---

System: RERF-LC-KJ
TEST_NAME: relative viability (nuclei count vs DMSO), 5 days (fraction); higher = more cells survive
MEASUREMENT_CONTEXT: first compound 0.8 µM
Documented relative viability across a set of molecules
Please reply with the number alone, leaving off any unit.

MOLECULE: Nc1cccc2c1CN(C1CCC(=O)NC1=O)C2=O (stereo unspecified) [Lenalidomide] + Cc1cc(Nc2cc(N3CCN(C)CC3)nc(Sc3ccc(NC(=O)C4CC4)cc3)n2)n[nH]1 [Tozasertib] (partner 0.1 µM)
relative viability: 0.566
--
MOLECULE: Nc1cccc2c1CN(C1CCC(=O)NC1=O)C2=O (stereo unspecified) [Lenalidomide] + C[C@@H](Oc1cc(-c2cnn(C3CCNCC3)c2)cnc1N)c1c(Cl)ccc(F)c1Cl [Crizotinib] (partner 1 µM)
relative viability: 0.778
--
MOLECULE: Nc1cccc2c1CN(C1CCC(=O)NC1=O)C2=O (stereo unspecified) [Lenalidomide] + Cc1nc(NC(=O)N2CCC[C@H]2C(N)=O)sc1-c1ccnc(C(C)(C)C(F)(F)F)c1 [Alpelisib] (partner 2 µM)
relative viability: 0.904

Q: What value of relative viability has been recorded for this entry: Nc1cccc2c1CN(C1CCC(=O)NC1=O)C2=O (stereo unspecified) [Lenalidomide] + COc1cccc2cc(-c3nc([C@H]4CC[C@H](C(=O)O)CC4)n4ncnc(N)c34)[nH]c12 [OSI-027] (partner 0.5 µM)
A: 0.615

Q: Next: Nc1cccc2c1CN(C1CCC(=O)NC1=O)C2=O (stereo unspecified) [Lenalidomide] + CS(=O)(=O)N1CCN(Cc2cc3nc(-c4cccc5[nH]ncc45)nc(N4CCOCC4)c3s2)CC1 [Pictilisib] (partner 1 µM)
A: 0.46

Q: Continue with Nc1cccc2c1CN(C1CCC(=O)NC1=O)C2=O (stereo unspecified) [Lenalidomide] + CC(C)C[C@H](NC(=O)[C@H](Cc1ccccc1)NC(=O)c1cnccn1)B(O)O [Bortezomib] (partner 0.002 µM)
A: 0.934

---

Test system: NCI-H1299
TEST_NAME: relative viability (nuclei count vs DMSO), 5 days (fraction); higher = more cells survive
MEASUREMENT_CONTEXT: first compound 0.03162 µM
MEASUREMENT_TYPE: relative viability
The reply should be a number, written without any unit.

Below: 3 compounds and their reported relative viability.
COMPOUND: Cc1cn(-c2cc(NC(=O)c3ccc(C)c(Nc4nccc(-c5cccnc5)n4)c3)cc(C(F)(F)F)c2)cn1 [Nilotinib] + O=C(c1cc(Cc2n[nH]c(=O)c3ccccc23)ccc1F)N1CCN(C(=O)C2CC2)CC1 [Olaparib] (partner 8 µM)
MEASUREMENT_TYPE: relative viability
ASSAY_RESULT: 0.948
--
COMPOUND: Cc1cn(-c2cc(NC(=O)c3ccc(C)c(Nc4nccc(-c5cccnc5)n4)c3)cc(C(F)(F)F)c2)cn1 [Nilotinib] + CS(=O)(=O)CCNCc1ccc(-c2ccc3ncnc(Nc4ccc(OCc5cccc(F)c5)c(Cl)c4)c3c2)o1 [Lapatinib] (partner 2 µM)
MEASUREMENT_TYPE: relative viability
ASSAY_RESULT: 1.05
--
COMPOUND: Cc1cn(-c2cc(NC(=O)c3ccc(C)c(Nc4nccc(-c5cccnc5)n4)c3)cc(C(F)(F)F)c2)cn1 [Nilotinib] + COc1cc2c(Oc3ccc(NC(=O)C4(C(=O)Nc5ccc(F)cc5)CC4)cc3F)ccnc2cc1OCCCN1CCOCC1 [Foretinib] (partner 0.25 µM)
MEASUREMENT_TYPE: relative viability
ASSAY_RESULT: 1.19

Q: Tell me the measured relative viability of Cc1cn(-c2cc(NC(=O)c3ccc(C)c(Nc4nccc(-c5cccnc5)n4)c3)cc(C(F)(F)F)c2)cn1 [Nilotinib] + CS(=O)(=O)N1CCN(Cc2cc3nc(-c4cccc5[nH]ncc45)nc(N4CCOCC4)c3s2)CC1 [Pictilisib] (partner 1 µM) , please.
A: 0.495
